# study target: T1, PUF4 RNA-binding domain (Saccharomyces cerevisiae, UniProt P25339 537-888)
# T1 sequence: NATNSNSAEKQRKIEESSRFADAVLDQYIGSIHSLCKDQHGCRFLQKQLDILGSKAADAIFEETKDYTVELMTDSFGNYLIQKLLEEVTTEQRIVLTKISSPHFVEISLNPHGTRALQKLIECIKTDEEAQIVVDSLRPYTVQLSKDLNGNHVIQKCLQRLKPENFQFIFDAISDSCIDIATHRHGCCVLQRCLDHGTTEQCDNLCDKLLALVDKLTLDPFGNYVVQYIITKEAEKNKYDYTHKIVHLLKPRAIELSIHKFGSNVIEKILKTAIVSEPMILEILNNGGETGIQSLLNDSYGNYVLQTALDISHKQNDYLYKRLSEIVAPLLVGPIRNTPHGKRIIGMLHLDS
# protocol details: Mg; RNA-MaP; 20 mM Na-HEPES pH 7.4, 30 mM KOAc, 0.75 mM MgCl2, 0.1% Tween-20, 5% glycerol, 0.1 mg/mL BSA, 2 mM DTT; 25 C; 0.0125-409.6 nM protein
# condition summary: tags: N-His6-TEV cleaved; C-SNAP kept, Cy3B-labelled; label: tethered on chip by stalled RNA polymerase
pKd: −log10 of the molar value.
Label F if pKd falls below 7; label T in every other case.

Take a look at these entries with their results.
binder	class label
Ib_S4_P4E.1_K4.1_C4.1_H4.1_A4.1_[T5C]_[A6T]_F4.1_T4.1 (ssRNA) RNA: UUUGACAACUGAUCGUUCUUUCUUGUACUUUAUUCUUUCUCGAUCAGUUGUCUUU	T
UCUCUUUGUAUCCUUCUCUU (ssRNA) [Ic_S1_P3E.1_K3.1_C3.1_H3.1_A3.1_[A6C]_F3.1_[T7C]_[A8T]_T3.1]	T
UCUCUUUGUACGAAUCUCUU (ssRNA) [Ic_S1_P3E.1_K3.1_C3.1_H3.1_A3.1_[T5C]_[A6G]_F3.1_[T7A]_T3.1]	F
UCUCUUUGUAUCGUUCUCUU (ssRNA) [Ic_S1_P3E.1_K3.1_C3.1_H3.1_A3.1_[A6C]_F3.1_[T7G]_[A8T]_T3.1]	F
ACAAACACUAUAUAUUAUCACAAAC (ssRNA) [Id_ii_S3_P4E.3_K4.2_C4.2_[C-2A]_[T-1C]_H4.2_A4.1_F4.1_T4.2_[G10T]_[T11C]]	T

Could you verify whether the entry UCUCUUGUACACUAUUAGCUCUCUU (ssRNA) [Id_ii_S1_P4E.4_K4.3_C4.2_[C-2G]_H4.3_A4.1_F4.1_T4.2_[T11C]] shows pKd of no less than 7?
T

Same question, Ic_S4_P5E.1_K5.1_C5.1_H5.1_A5.1_[T5A]_[T6A]_[A7C]_F5.1_[T9G]_[A10G]_T5.1 (ssRNA) RNA: UUUGACAACUGAUCGUUCUUUCUUGUAAACUGGUUCUUUCUCGAUCAGUUGUCUUU this time
F

Values compiled from paper PMC9352680.
